Experiment: STAT1 signaling inhibitors, primary screen, cell-based, HTS, luciferase reporter (AID 920);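 note: 0% = IFN-gamma with DMSO and 100% = IFN-gamma with 300 µM nifuroxazide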
Conditions: NIH 3T3 STAT1-luciferase reporter, IFN-gamma, luminescence; at 5.5 µM
The campaign covered roughly 200,000 compounds. About 700 (0.35%) were called active.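 Rule for the calls: active = inhibition above a set limit, the mean inhibition across all tested compounds plus 3 SD (cut at about 34% in these data); inactive = the rest.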 This is one part of a sample in which actives are shown more often than they occur.
Permitted responses: yes = active, no = inactive

Cc1cccc(OCCNC(=S)NC(=O)c2cccnc2)c1 = no
Brc1ccc(-c2csc(N/N=C/c3ccc4c(c3)OCO4)n2)cc1 = no
CCC(C)Sc1nnc(-c2c[nH]c3ccccc23)n1CCOC (centres undefined) = no
CCOC(=O)N1CCN(C(=O)C2CCN(c3ncnc4c3sc3cccc(F)c34)CC2)CC1 = yes
Clc1cccc(-c2nc(NCC3CCCO3)c3ccccc3n2)c1 (centres undefined) = no

Exercise: Call for entry "CN(C)S(=O)(=O)c1cccc(NC(=S)N/N=C/C(=O)c2ccccc2)c1" :
Solution: no

Exercise: Call for entry "CCc1ccc2oc(-c3ccc(N)cc3)nc2c1" :
Solution: yes

Exercise: Call for entry "CN(Cc1cccnc1)C(=O)c1cc(COc2ccc3ncccc3c2)on1" :
Solution: yes

---

Test: STAT1 signaling inhibitors, primary screen, cell-based, HTS, luciferase reporter (AID 920);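 note: 0% = IFN-gamma with DMSO and 100% = IFN-gamma with 300 µM nifuroxazide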
Conditions: NIH 3T3 STAT1-luciferase reporter, IFN-gamma, luminescence; at 5.5 µM; hits give high values
Out of some 200,000 compounds screened, about 700 (0.35%) were called active. The entries come from a sample that favours actives as a whole.
assay_readout: inhibition (%)
The reply should contain only the number, in %.

// known answers, use as guide
C=CCN(C(=O)c1cc(C)cc(C)c1)C1(C(=O)Nc2ccccc2)CCN(C(C)C)CC1 = -4.59
COc1ccc(N2CCN(C(=O)c3ccc4c(Cl)c5c(nc4c3)CCCC5)CC2)cc1 = 1.44
COC(=O)C1=CN(Cc2ccc(OC)c(OC)c2)C=C(C(=O)OC)C1c1cccs1 = 59.2
CCc1ccc(NC(=O)Nc2ccncc2)cc1 = -10.4

Exercise: Return reported inhibition; argument: "COc1ccc(CC(=O)Nc2cc(S(=O)(=O)N3CCCCC3)ccc2N2CCN(C)CC2)cc1"
Solution: 1.82

---

Assay: STAT1 signaling inhibitors, primary screen, cell-based, HTS, luciferase reporter (AID 920);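 note: 0% = IFN-gamma with DMSO and 100% = IFN-gamma with 300 µM nifuroxazide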
Conditions: NIH 3T3 STAT1-luciferase reporter, IFN-gamma, luminescence; at 5.5 µM; hits give high values
The whole screen tested about 200,000 compounds, of which about 700 (0.35%) were called active. Shown is part of a subset that was picked to be rich in actives.
This listing pairs compounds with measured inhibition.
The reply should contain only the number, in %.

// known answers, use as guide
CCCNC(=O)c1c(N)n(-c2ccc(S(N)(=O)=O)cc2)c2nc3ccccc3nc12 = -1.16
CCCCOC(=O)CCCc1ccc([N+](=O)[O-])cc1[N+](=O)[O-] = 6.62

Exercise: Return reported inhibition; argument: "O=c1oc2ccccc2cc1-c1cn(-c2ccccc2)c(=S)[nH]1"
Solution: 76.9

Exercise: Return reported inhibition; argument: "O=C(CSc1nc2ccc([N+](=O)[O-])cc2[nH]1)c1ccc(Cl)cc1"
Solution: -9.84

Exercise: Return reported inhibition; argument: "Nc1ncc(-c2cc3ccccc3oc2=O)s1"
Solution: -72.7

Exercise: Return reported inhibition; argument: "COc1ccc(CCNC(=O)COC(=O)/C=C/c2cccs2)cc1OC"
Solution: 9.78
